- Tested on: SR leukemia
- Experimental details: NCI tumour cell line growth inhibition, 48 h; in the data active means GI50 below about 0.43 µM; inactive means the rest
Would you mind answering with one of these outcomes? True = active, False = inactive

Example results:
O=C(NCCCNc1cc(-c2cn(-c3ccccc3)nc2-c2cccc(O)c2)ccn1)Nc1ccc(F)cc1: False
COc1cc(OC)c(/C=C/S(=O)(=O)Cc2ccc(OC)c(NC(=O)CCC(=O)NO)c2)c(OC)c1: True
Oc1cccc2ccc(-c3nnc(SCc4ccc(O)c5ncccc45)n3-c3ccccc3)nc12: True

Now look at this one.
## Input Per the records of this test, what outcome belongs to CCC(=C(c1ccc(OCCN(C)C)cc1)c1ccc(OCCN(C)C)cc1)c1ccc(Cl)cc1 ?
## Output False
